# SUBJECT_OF_TEST: T1, human NPRA (human, UniProt P16066 33-1061)
# T1 sequence (looked up): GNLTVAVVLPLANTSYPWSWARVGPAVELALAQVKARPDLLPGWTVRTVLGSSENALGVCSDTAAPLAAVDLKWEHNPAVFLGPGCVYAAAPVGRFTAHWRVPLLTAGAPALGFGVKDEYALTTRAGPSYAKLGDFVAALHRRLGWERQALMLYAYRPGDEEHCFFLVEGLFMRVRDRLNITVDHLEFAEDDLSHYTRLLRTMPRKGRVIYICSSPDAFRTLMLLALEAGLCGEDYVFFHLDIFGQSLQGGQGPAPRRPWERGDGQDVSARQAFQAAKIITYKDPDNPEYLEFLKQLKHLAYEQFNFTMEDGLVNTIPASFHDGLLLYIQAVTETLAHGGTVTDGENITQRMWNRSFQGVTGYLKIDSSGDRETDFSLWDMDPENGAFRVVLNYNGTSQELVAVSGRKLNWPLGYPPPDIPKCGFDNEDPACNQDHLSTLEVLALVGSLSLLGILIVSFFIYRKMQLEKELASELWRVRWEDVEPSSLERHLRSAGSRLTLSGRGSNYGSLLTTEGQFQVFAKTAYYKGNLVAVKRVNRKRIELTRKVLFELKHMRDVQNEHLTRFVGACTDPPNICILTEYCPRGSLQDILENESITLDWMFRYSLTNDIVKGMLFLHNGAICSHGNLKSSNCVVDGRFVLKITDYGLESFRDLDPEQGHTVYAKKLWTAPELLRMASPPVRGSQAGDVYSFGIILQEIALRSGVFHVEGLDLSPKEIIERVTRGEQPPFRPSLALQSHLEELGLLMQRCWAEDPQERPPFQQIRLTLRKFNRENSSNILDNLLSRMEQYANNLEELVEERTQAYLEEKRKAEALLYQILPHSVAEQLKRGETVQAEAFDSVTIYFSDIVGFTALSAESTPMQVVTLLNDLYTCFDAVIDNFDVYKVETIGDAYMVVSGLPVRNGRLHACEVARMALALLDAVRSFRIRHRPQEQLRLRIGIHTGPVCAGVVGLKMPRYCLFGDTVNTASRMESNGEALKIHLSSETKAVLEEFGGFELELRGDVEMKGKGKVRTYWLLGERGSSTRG
# ASSAY_METHOD_TEXT: cell-based or functional assay
Numbered stars: 1 amine (or outer) side, 2 acyl side, 3 side chain; on linkers, the order of the positions; unused ones are H or OH. Bridge positions count the residues as written; N and C are the ends. Square brackets hold non-standard residues; d marks the D form. * marks the point of attachment. thioacetal = thioacetal linkage between two cysteines (intrachain bond at the bracketed Cys); C20 diacid = O=C(O)CCCCCCCCCCCCCCCCCCC(=O)*; γGlu = O=C(O)[C@H](CCC(=O)[*:2])N[*:1]; 4Pal = N[C@@H](Cc1ccncc1)C(=O)O; Aib = CC(C)(N)C(=O)O
READOUT_TYPE: cGMP Assay (EC50, pM) w/Casein
Could you give me the number in pM? Just the number is fine.

Please look up its cGMP Assay (EC50, pM) w/Casein: {C20 diacid}-[γGlu]EKEKEKGS[4Pal]KRSSCFGGKIDRIGHQSGLGCPSFRHKITAKEDE-NH2 (disulfide 15-31) [Example 34] 291

Please look up its cGMP Assay (EC50, pM) w/Casein: {C20 diacid}-[γGlu]EKEKEKGS[4Pal]RRSSCFGGRIDRIGHQSGLGCPSFRHGGPPS[Aib]KPPPK-NH2 (bridge 15-31 via thioacetal) [Example 68] 924
